Test: Lyophilisation solubility assay (Lysa)
Type: physicochemical
Details: phosphate buffer, pH 6.5, aqueous buffer, thermodynamic from solid
Examples of molecules with documented solubility thermodynamic follow.

INSERT INTO measurements (molecule, result) VALUES
  ('CCOC(=O)C1=C(CN2CCOC[C@H]2C(=O)O)NC(c2nccs2)=N[C@H]1c1ccc(F)cc1Br [Example 122]', '> 722 µg/mL'),
  ('CCOC(=O)C1=C(CN2CCOC[C@H]2C(=O)O)NC(c2nccn2C)=N[C@H]1c1cccc(F)c1Cl [Example 97]', '> 640 µg/mL'),
  ('COC(=O)C1=C(CN2CCOC[C@]2(C)C(=O)O)NC(c2nccs2)=N[C@H]1c1ccc(F)c(F)c1Cl (single isomer, unassigned) [Example 79]', '> 660 µg/mL'),
  ('CCOC(=O)C1=C(CN2CCOC[C@H]2C(=O)O)NC(c2nccs2)=N[C@H]1c1ccccc1Cl [Example 82]', '> 618 µg/mL'),
  ('CCOC(=O)C1=C(CN2CCOC[C@H]2C(=O)O)NC(c2nccs2)=N[C@H]1c1ccc(Br)c(F)c1 [Example 52]', '> 665 µg/mL'),
  ('COC(=O)C1=C(CN2C[C@H](C(=O)O)CC(F)(F)C2)NC(c2nc(C)cs2)=N[C@H]1c1ccc(F)cc1Cl [Example 80]', '518 µg/mL');

Please report the measured solubility thermodynamic for COC(=O)C1=C(CN2CCOC[C@H]2C(=O)O)NC(c2ncoc2C)=N[C@H]1c1ccc(F)cc1Cl [Example 68]
> 627 µg/mL

====

Recorded solubility thermodynamic for the following compounds
Assay: Lyophilisation solubility assay (Lysa)
Format: physicochemical
Settings: phosphate buffer, pH 6.5, aqueous buffer, thermodynamic from solid
Reply numerically in µg/mL, unit not repeated.

INSERT INTO assay_data (compound, metric_name, uom, numeric_value) VALUES
  ('COC(=O)C1=C(CN2CC(F)(F)C[C@H]2C(=O)O)NC(c2nc(C(C)C)cs2)=N[C@H]1c1ccc(F)cc1Cl [Example 28]', 'solubility thermodynamic', 'µg/mL', 247);

Please look at the following compound next.
Look up solubility thermodynamic of COC(=O)C1=C(CN2CC(F)(F)C[C@H]2C(=O)O)NC(c2nccs2)=N[C@H]1c1ccc(C#N)cc1Cl [Example 30] and report it.
667

====

Experiment: Lyophilisation solubility assay (Lysa)
Type: physicochemical
Conditions: phosphate buffer, pH 6.5, aqueous buffer, thermodynamic from solid
Recorded solubility thermodynamic values for a group of compounds are listed next.

INSERT INTO results (smiles_text, result) VALUES
  ('COC(=O)C1=C(CN2CCOC[C@H]2C(=O)O)N=C(c2nccs2)N[C@H]1c1ccc(F)cc1Cl', '> 660 µg/mL'),
  ('COC(=O)C1=C(CN2CC(F)(F)C[C@H]2C(=O)O)NC(c2nccs2)=N[C@H]1c1ccc(F)cc1Br', '> 668 µg/mL'),
  ('CCOC(=O)C1=C(CN2CCOC[C@H]2C(=O)O)NC(c2ncoc2C)=N[C@H]1c1ccc(F)cc1Br', '> 658 µg/mL'),
  ('CC(C)OC(=O)C1=C(CN2CCOC[C@H]2C(=O)O)NC(c2nccs2)=N[C@H]1c1cccc(F)c1Cl', '> 571 µg/mL');

Attention now turns to another entry.
Answer with reported solubility thermodynamic of COC(=O)C1=C(CN2CCOC[C@H]2C(=O)O)NC(c2ncc(F)cc2F)=N[C@H]1c1ccc(F)cc1Cl
> 100 µg/mL
